assay notes: Biodistribution experiments in normal mice after i.v. injection
Assay type: in vivo
condition context: male, ddY, mouse, in vivo, iv, total radioactivity, mice, i.v., 10 min after injection, mean (SD); read-out: Biodistribution of radioactivity, Muscle
Procedure: Experiments with animals were conducted in strict accordance with the Guidelines for the Care and Use of Laboratory Animals of Kanazawa University. […] Complete left femurs were isolated as representative bone samples, radioactivity was determined using gamma counters (AccuFLEX γ ARC-8001 in the case of ^18F, Hitachi, Ltd.), and background counts and physical decay were corrected during counting.
Where a SMILES comes first, the peptide text is derived from it. [ ]: non-standard residue; d: D form. The star is where a group is joined. DOTA = O=C(O)CN1CCN(CC(=O)O)CCN(CC(=O)*)CCN(CC(=O)O)CC1
measured attribute: tissue uptake dose at 10 min (%ID)
Answer format: numeric, %ID implied, no suffix.

Form field: reported tissue uptake dose at 10 min of O=C(O)C[C@@H](NC(=O)[C@@H](CC(=O)O)NC(=O)[C@@H](CC(=O)O)NC(=O)[C@@H](CC(=O)O)NC(=O)[C@@H](CC(=O)O)NC(=O)[C@@H](CC(=O)O)NC(=O)[C@@H](CC(=O)O)NC(=O)[C@@H](CC(=O)O)NC(=O)[C@@H](CC(=O)O)NC(=O)[C@@H](CC(=O)O)NC(=O)[C@@H](CC(=O)O)NC(=O)CN1CCN(CC(=O)O)CCN(CC(=O)O)CCN(CC(=O)O)CC1)C(=O)O [^67Ga-DOTA-(D-Asp)11, metal not drawn] ({DOTA}-[dD][dD][dD][dD][dD][dD][dD][dD][dD][dD][dD]-OH)
0.58

###

assay notes: Biodistribution experiments in normal mice after i.v. injection
Assay type: in vivo
condition context: male, ddY, mouse, in vivo, iv, total radioactivity, Biodistribution of radioactivity, Liver
Where a SMILES comes first, the peptide text is derived from it. [ ]: non-standard residue; d: D form. The star is where a group is joined. DOTA = O=C(O)CN1CCN(CC(=O)O)CCN(CC(=O)*)CCN(CC(=O)O)CC1
measured attribute: tissue uptake dose at 10 min (%ID)
Answer format: numeric, %ID implied, no suffix.

Form field: reported tissue uptake dose at 10 min of O=C(O)C[C@@H](NC(=O)[C@@H](CC(=O)O)NC(=O)[C@@H](CC(=O)O)NC(=O)[C@@H](CC(=O)O)NC(=O)[C@@H](CC(=O)O)NC(=O)[C@@H](CC(=O)O)NC(=O)[C@@H](CC(=O)O)NC(=O)[C@@H](CC(=O)O)NC(=O)CN1CCN(CC(=O)O)CCN(CC(=O)O)CCN(CC(=O)O)CC1)C(=O)O [^67Ga-DOTA-(D-Asp)8, metal not drawn] ({DOTA}-[dD][dD][dD][dD][dD][dD][dD][dD]-OH)
0.46

###

assay notes: Biodistribution experiments in normal mice after i.v. injection
Type: in vivo
condition context: male, ddY, mouse, in vivo, iv, total radioactivity, Biodistribution of radioactivity, Kidney
Where a SMILES comes first, the peptide text is derived from it. [ ]: non-standard residue; d: D form. The star is where a group is joined. DOTA = O=C(O)CN1CCN(CC(=O)O)CCN(CC(=O)*)CCN(CC(=O)O)CC1
measured attribute: tissue uptake dose at 3 h (%ID)
Answer format: numeric, %ID implied, no suffix.

O=C(O)CC[C@@H](NC(=O)[C@@H](CCC(=O)O)NC(=O)[C@@H](CCC(=O)O)NC(=O)[C@@H](CCC(=O)O)NC(=O)[C@@H](CCC(=O)O)NC(=O)[C@@H](CCC(=O)O)NC(=O)[C@@H](CCC(=O)O)NC(=O)[C@@H](CCC(=O)O)NC(=O)[C@@H](CCC(=O)O)NC(=O)[C@@H](CCC(=O)O)NC(=O)[C@@H](CCC(=O)O)NC(=O)[C@@H](CCC(=O)O)NC(=O)[C@@H](CCC(=O)O)NC(=O)[C@@H](CCC(=O)O)NC(=O)CN1CCN(CC(=O)O)CCN(CC(=O)O)CCN(CC(=O)O)CC1)C(=O)O [^67Ga-DOTA-(D-Glu)14, metal not drawn]
6.59
O=C(O)C[C@@H](NC(=O)[C@@H](CC(=O)O)NC(=O)CN1CCN(CC(=O)O)CCN(CC(=O)O)CCN(CC(=O)O)CC1)C(=O)O [^67Ga-DOTA-(D-Asp)2, metal not drawn] ({DOTA}-[dD]-[dD]-OH)
1.42
O=C(O)C[C@@H](NC(=O)[C@@H](CC(=O)O)NC(=O)[C@@H](CC(=O)O)NC(=O)[C@@H](CC(=O)O)NC(=O)[C@@H](CC(=O)O)NC(=O)CN1CCN(CC(=O)O)CCN(CC(=O)O)CCN(CC(=O)O)CC1)C(=O)O [^67Ga-DOTA-(D-Asp)5, metal not drawn] ({DOTA}-[dD][dD][dD][dD][dD]-OH)
1.45
O=C(O)C[C@@H](NC(=O)[C@@H](CC(=O)O)NC(=O)[C@@H](CC(=O)O)NC(=O)[C@@H](CC(=O)O)NC(=O)[C@@H](CC(=O)O)NC(=O)[C@@H](CC(=O)O)NC(=O)[C@@H](CC(=O)O)NC(=O)[C@@H](CC(=O)O)NC(=O)CN1CCN(CC(=O)O)CCN(CC(=O)O)CCN(CC(=O)O)CC1)C(=O)O [^67Ga-DOTA-(D-Asp)8, metal not drawn] ({DOTA}-[dD][dD][dD][dD][dD][dD][dD][dD]-OH)
1.23

Form field: reported tissue uptake dose at 3 h of O=C(O)CC[C@H](NC(=O)[C@H](CCC(=O)O)NC(=O)[C@H](CCC(=O)O)NC(=O)[C@H](CCC(=O)O)NC(=O)[C@H](CCC(=O)O)NC(=O)[C@H](CCC(=O)O)NC(=O)[C@H](CCC(=O)O)NC(=O)[C@H](CCC(=O)O)NC(=O)[C@H](CCC(=O)O)NC(=O)[C@H](CCC(=O)O)NC(=O)[C@H](CCC(=O)O)NC(=O)[C@H](CCC(=O)O)NC(=O)[C@H](CCC(=O)O)NC(=O)[C@H](CCC(=O)O)NC(=O)CN1CCN(CC(=O)O)CCN(CC(=O)O)CCN(CC(=O)O)CC1)C(=O)O [^67Ga-DOTA-(L-Glu)14, metal not drawn]
25.1

Reference for the values: paper PMC5656653
